Origin of the recorded values: patent US20240408119A1

measurement notes: Plasma Stability Assay (Example A3), rat plasma
Assay type: in vitro ADME
conditions: prodrug remaining, 10 μM, 37° C., 240 min
Description: The data is represented in the table below.
Rat Plasma Prodrug (%) for assorted compounds
assay endpoint: Rat Plasma Prodrug (%)

compound="COc1ccc([C@@]23CCC(OP4(=O)OC(C)CC(C)O4)=C[C@@H]2N(C)CC3)cc1OC (stereo partly shown)" assay_endpoint="Rat Plasma Prodrug (%)" assay_value=67.32
compound=COc1ccc([C@@]23CCC(OP4(=O)OCCCO4)=C[C@@H]2N(C)CC3)cc1OC assay_endpoint="Rat Plasma Prodrug (%)" assay_value=76.8
compound=COc1ccc([C@@]23CCC(OP(=O)(OC(C)C)OC(C)C)=C[C@@H]2N(C)CC3)cc1OC assay_endpoint="Rat Plasma Prodrug (%)" assay_value=65.7
compound=COc1ccc([C@@]23CCC(OP4(=O)OCC(C)(C)CO4)=C[C@@H]2N(C)CC3)cc1OC assay_endpoint="Rat Plasma Prodrug (%)" assay_value=34.0
compound=COc1ccc([C@@]23CCC(OP(=O)(O)OCOC(=O)C(C)(C)C)=C[C@@H]2N(C)CC3)cc1OC assay_endpoint="Rat Plasma Prodrug (%)" assay_value=22.7
compound=COc1ccc([C@@]23CCC(OP(=O)(O)OCOC(=O)C(C)C)=C[C@@H]2N(C)CC3)cc1OC assay_endpoint="Rat Plasma Prodrug (%)" assay_value=0.0
compound=COc1ccc([C@@]23CCC(OP(=O)(O)OCOC(=O)OC(C)C)=C[C@@H]2N(C)CC3)cc1OC assay_endpoint="Rat Plasma Prodrug (%)" assay_value=0.01

----------
Human Plasma Prodrug (%) for assorted compounds
measurement notes: Plasma Stability Assay (Example A3), human plasma
Type: in vitro ADME
conditions: prodrug remaining, 10 μM, 37° C., 0 min
assay endpoint: Human Plasma Prodrug (%)

compound=COc1ccc([C@@]23CCC(OP(=O)(OC(C)C)OC(C)C)=C[C@@H]2N(C)CC3)cc1OC assay_endpoint="Human Plasma Prodrug (%)" unit_info=% assay_value=100.0
compound="COc1ccc([C@@]23CCC(OP4(=O)OC(C)CC(C)O4)=C[C@@H]2N(C)CC3)cc1OC (stereo partly shown)" assay_endpoint="Human Plasma Prodrug (%)" unit_info=% assay_value=100.00
compound=COc1ccc([C@@]23CCC(OP(=O)(O)OCOC(=O)OC(C)C)=C[C@@H]2N(C)CC3)cc1OC assay_endpoint="Human Plasma Prodrug (%)" unit_info=% assay_value=100.0
compound=COc1ccc([C@@]23CCC(OP4(=O)OCC(C)(C)CO4)=C[C@@H]2N(C)CC3)cc1OC assay_endpoint="Human Plasma Prodrug (%)" unit_info=% assay_value=100.00
compound=COc1ccc([C@@]23CCC(OP(=O)(O)OCOC(=O)C(C)(C)C)=C[C@@H]2N(C)CC3)cc1OC assay_endpoint="Human Plasma Prodrug (%)" unit_info=% assay_value=100.0
compound=COc1ccc([C@@]23CCC(OP(=O)(O)OCOC(=O)C(C)C)=C[C@@H]2N(C)CC3)cc1OC assay_endpoint="Human Plasma Prodrug (%)" unit_info=% assay_value=100.0
compound=COc1ccc([C@@]23CCC(OP4(=O)OCCCO4)=C[C@@H]2N(C)CC3)cc1OC assay_endpoint="Human Plasma Prodrug (%)" unit_info=% assay_value=100.0

----------
measurement notes: Pharmacokinetics of 358, single IV in male C57BL/6 mice
Type: in vivo, mouse
conditions: male, C57BL/6, mouse, plasma; 358 after 358 IV 2 mg/kg, 0.08 h; read-out: Plasma concentrations (mean)
assay endpoint: concentration at 0.08 h (ng/mL)

line_notation=COc1ccc([C@@]23CCC(OC(=O)OC(C)(C)C)=C[C@@H]2N(C)CC3)cc1OC assay_endpoint="concentration at 0.08 h" unit_info=ng/mL assay_value=14.3
